Below, each entry is listed alongside its reported Activity.
- Test system: Liver
- assay_method_text: Hydrolytic rate constant, log k of the compound in Wistar rat liver S9 fraction
- Format: ADME, subcellular
readout_name: Activity

1) O=C(NC1CCC1)Oc1cccc(-c2ccccc2)c1 :: -0.56
2) O=C(NCc1ccc2ccccc2c1)Oc1cccc(-c2ccccc2)c1 :: -1.6
3) CNC(=O)Oc1cccc(-c2ccccc2)c1 :: -1.03
4) O=C(NCCc1ccccc1)Oc1cccc(-c2ccccc2)c1 :: -0.59
5) O=C(NC1Cc2ccccc2C1)Oc1cccc(-c2ccccc2)c1 :: -1.96
6) O=C(NCCCCc1ccccc1)Oc1cccc(-c2ccccc2)c1 :: -1.44
7) O=C(NCC1CCCCC1)Oc1cccc(-c2ccccc2)c1 :: -1.15
8) O=C(NCCCCCCc1ccccc1)Oc1cccc(-c2ccccc2)c1 :: -1.75
9) CCCCNC(=O)Oc1cccc(-c2ccccc2)c1 :: -0.41
10) CCCCCCNC(=O)Oc1cccc(-c2ccccc2)c1 :: -1.06

* * *

- Tested on: Plasma
- assay_method_text: Hydrolytic rate constant, log k of the compound in Wistar rat plasma
- Type: ADME, cell-free
Activity values for the compounds below.
readout_name: Activity

1) O=C(NC1CCC1)Oc1cccc(-c2ccccc2)c1 :: -1.46
2) O=C(NCC1CCCCC1)Oc1cccc(-c2ccccc2)c1 :: -1.35
3) O=C(NCCCCc1ccccc1)Oc1cccc(-c2ccccc2)c1 :: -0.98
4) CCCCNC(=O)Oc1cccc(-c2ccccc2)c1 :: -1.49
5) O=C(NC1CCCCC1)Oc1cccc(-c2ccccc2)c1 :: -1.79
6) CCCCCCNC(=O)Oc1cccc(-c2ccccc2)c1 :: -1.03
7) O=C(NCCCCCCN1CCOCC1)Oc1cccc(-c2ccccc2)c1 :: -1.06
8) O=C(NCc1ccccc1)Oc1cccc(-c2ccccc2)c1 :: -1.32
9) O=C(NCCc1ccccc1)Oc1cccc(-c2ccccc2)c1 :: -1.5
10) O=C(NC12CC3CC(CC(C3)C1)C2)Oc1cccc(-c2ccccc2)c1 :: -2.42
11) O=C(NCc1cccc2ccccc12)Oc1cccc(-c2ccccc2)c1 :: -1.03
12) CNC(=O)Oc1cccc(-c2ccccc2)c1 :: -0.74
13) O=C(NC1CCCC1)Oc1cccc(-c2ccccc2)c1 :: -1.76
14) O=C(NC1Cc2ccccc2C1)Oc1cccc(-c2ccccc2)c1 :: -1.38
15) CC(C)NC(=O)Oc1cccc(-c2ccccc2)c1 :: -1.46
16) O=C(NCc1ccc2ccccc2c1)Oc1cccc(-c2ccccc2)c1 :: -0.17
17) O=C(NCCCCCCc1ccccc1)Oc1cccc(-c2ccccc2)c1 :: -1.08

* * *

- assay_method_text: Chemical stability of the compound in 0.01 M borate buffer assessed as half life at pH 9.0 by HPLC analysis
- Format: physicochemical
- protocol_conditions: buffer
We'd kindly ask you to apply these t1/2 classes: lo = under 30 min, med = from 30 min up to 50 min, hi = 50 min and over

1) O=C(NCCCCCCc1ccccc1)Oc1cccc(-c2ccccc2)c1 :: hi
2) CCCCNC(=O)Oc1cccc(-c2ccccc2)c1 :: med
3) O=C(NC1Cc2ccccc2C1)Oc1cccc(-c2ccccc2)c1 :: lo
4) CNC(=O)Oc1cccc(-c2ccccc2)c1 :: med
5) O=C(NCCc1ccccc1)Oc1cccc(-c2ccccc2)c1 :: med
6) O=C(NCc1cccc2ccccc12)Oc1cccc(-c2ccccc2)c1 :: med
7) CC(C)NC(=O)Oc1cccc(-c2ccccc2)c1 :: hi
8) O=C(NCc1ccc2ccccc2c1)Oc1cccc(-c2ccccc2)c1 :: lo
9) O=C(NCC1CCCCC1)Oc1cccc(-c2ccccc2)c1 :: hi
10) O=C(NC1CCCC1)Oc1cccc(-c2ccccc2)c1 :: med
11) O=C(NCCCCCCN1CCOCC1)Oc1cccc(-c2ccccc2)c1 :: med
